Assay: Acute toxicity (LD50) in rat
Parameters: species or system male Sprague-Dawley rats
Conditions: in vivo, iv, Litchfield and Wilcoxon
Exam item: assign Satisfied to entries whose LD50 is below 3 µmol/kg and Not satisfied to entries at or above 3 µmol/kg. Note that a value of exactly 3 µmol/kg receives Not satisfied.

{"compound": "Cc1c(-c2ccccc2)n(/N=N/n2c(-c3ccccc3)c(C)[n+]3ccccc23)c2cccc[n+]12 [Fazadinium bromide, reference compound]", "group": "Satisfied"}

Problem: Here's an entry: Cc1c(-c2ccccc2)n(CCCCCCn2c(-c3ccccc3)c(C)[n+]3ccccc23)c2cccc[n+]12 . Is its LD50 below 3 µmol/kg?
Result: Satisfied

Problem: Here's an entry: c1ccc(-c2c[n+]3ccccc3n2CCCCCCCCn2c(-c3ccccc3)c[n+]3ccccc23)cc1 . Is its LD50 below 3 µmol/kg?
Result: Satisfied

Problem: Here's an entry: Cc1c(-c2ccccc2)n(CCCCn2c(-c3ccccc3)c(C)[n+]3ccccc23)c2cccc[n+]12 . Is its LD50 below 3 µmol/kg?
Result: Not satisfied

Problem: Here's an entry: c1ccc(-c2c[n+]3ccccc3n2CCCCn2c(-c3ccccc3)c[n+]3ccccc23)cc1 . Is its LD50 below 3 µmol/kg?
Result: Not satisfied

Problem: Here's an entry: Fc1ccc(-c2c[n+]3ccccc3n2CCCCCCn2c(-c3ccc(F)cc3)c[n+]3ccccc23)cc1 . Is its LD50 below 3 µmol/kg?
Result: Not satisfied

Problem: Here's an entry: COc1ccc(-c2c[n+]3ccccc3n2CCCCCCn2c(-c3ccc(OC)cc3)c[n+]3ccccc23)cc1 [Example 5, monohydrate] . Is its LD50 below 3 µmol/kg?
Result: Satisfied

Problem: Here's an entry: c1ccc(-c2c[n+]3ccccc3n2CCn2c(-c3ccccc3)c[n+]3ccccc23)cc1 . Is its LD50 below 3 µmol/kg?
Result: Not satisfied
